Values were extracted from patent US11696916B2.

Assignment: determine reported IC50 for the given compounds.
- TARGET_SYSTEM: Full length SHP2 protein (Recombinant Human SHP-2) (Homo sapiens (Human), UniProt Q06124)
- Sequence (Q06124 2-593): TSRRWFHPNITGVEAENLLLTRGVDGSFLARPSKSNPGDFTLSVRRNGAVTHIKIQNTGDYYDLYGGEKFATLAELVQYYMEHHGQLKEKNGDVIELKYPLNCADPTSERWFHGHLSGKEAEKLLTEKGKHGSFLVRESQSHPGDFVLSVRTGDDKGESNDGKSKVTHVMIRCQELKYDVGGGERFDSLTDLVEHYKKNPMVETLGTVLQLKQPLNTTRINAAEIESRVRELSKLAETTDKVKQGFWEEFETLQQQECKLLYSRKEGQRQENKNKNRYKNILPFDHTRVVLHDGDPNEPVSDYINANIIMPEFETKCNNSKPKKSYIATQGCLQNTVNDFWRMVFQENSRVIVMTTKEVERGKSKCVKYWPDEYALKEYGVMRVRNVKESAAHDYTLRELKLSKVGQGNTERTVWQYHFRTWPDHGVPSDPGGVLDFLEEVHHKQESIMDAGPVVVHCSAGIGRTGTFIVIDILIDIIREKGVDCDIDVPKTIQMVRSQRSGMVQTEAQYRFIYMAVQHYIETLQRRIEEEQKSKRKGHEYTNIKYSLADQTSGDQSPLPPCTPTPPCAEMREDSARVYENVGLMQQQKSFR
- ASSAY_INFO: SHP2 biochemical assay (DiFMUP, activating peptide IRS1_2pY)
- MEASUREMENT_CONDITIONS: DiFMUP substrate, 60 min RT
One number for each entry, in µM.

INSERT INTO results (compound, experimental_endpoint, numeric_value) VALUES
  ('Cc1nc(N2CCC3(CC2)CC(F)(F)C[C@H]3N)nc(C(N)=O)c1-c1cccc(Cl)c1Cl (atropisomer, axis not shown; (P)) [Compound 97]', 'IC50', 4.4),
  ('Cc1nc(N2CCC3(CC2)CC(F)(F)C[C@H]3N)nc(C(N)=O)c1-c1cccc(Cl)c1Cl (atropisomer, axis not shown; (M)) [Compound 96]', 'IC50', 0.062),
  ('C[C@@H]1OCC2(CCN(c3nc(N)c(-c4cccc(Cl)c4Cl)c(C(N)=O)n3)CC2)[C@@H]1N (atropisomer, axis not shown; (M)) [Compound 67]', 'IC50', 16);

Now take the following compound into account.
## Task Enter measured IC50, system Full length SHP2 protein (Recombinant Human SHP-2) (Homo sapiens (Human), UniProt Q06124), for the compound shown: C[C@@H]1OCC2(CCN(c3nc(N)c(-c4cccc(Cl)c4Cl)c(C(N)=O)n3)CC2)[C@@H]1N (atropisomer, axis not shown; (P)) [Compound 66]
## Result 0.052
